attribute measured: intrinsic clearance, rat liver microsomes (mL/min/kg)

- compound: "CN(C)C1(CNC(=O)N2CCCC(C)(C)CC2)CCOCC1"
  unit info: "mL/min/kg"
  bound operator: "="
  measured result: 120
- compound: "Cc1cc(F)ccc1C1C(=O)NCCN1C(=O)c1ccc2nccn2c1 (centres undefined)"
  unit info: "mL/min/kg"
  bound operator: "="
  measured result: 27.7
- compound: "O=C1CC(N2CCCN(c3ccc(C(F)(F)F)cn3)CC2)C(=O)N1c1ccccc1 (centres undefined)"
  unit info: "mL/min/kg"
  bound operator: "="
  measured result: 1280
- compound: "CCC1(O)CN(c2ncnc3c2c(Br)nn3C)C1"
  unit info: "mL/min/kg"
  bound operator: "="
  measured result: 35.2
- compound: "Fc1cccc(Cl)c1CNCCc1c[nH]c2ccccc12"
  unit info: "mL/min/kg"
  bound operator: "="
  measured result: 2150
- compound: "Cc1ccc(C2(O)CCN(Cc3cn(C)c4ccc(F)cc34)CC2)cc1"
  unit info: "mL/min/kg"
  bound operator: "="
  measured result: 1790
- compound: "COc1ccccc1N1CCN(CCNC(=O)c2ccc(F)cc2)CC1"
  unit info: "mL/min/kg"
  bound operator: "="
  measured result: 356
- compound: "Cc1cnc(C(=O)N[C@H]2CCOC[C@@H]2O)cc1Cc1ccc(-c2cscn2)cc1"
  unit info: "mL/min/kg"
  bound operator: "="
  measured result: 34.8
- compound: "N#Cc1cccc(CN2CCN(CCO)CC2)c1"
  unit info: "mL/min/kg"
  bound operator: "="
  measured result: 126
- compound: "Cn1c(=O)oc2cc(NC(C3CC3)C3CC3)ccc21"
  unit info: "mL/min/kg"
  bound operator: "="
  measured result: 186
- compound: "CCN1CCC(Nc2nc(C)cc(C)c2C#N)CC1"
  unit info: "mL/min/kg"
  bound operator: "="
  measured result: 2490
- compound: "CCOC(=O)Nc1cc(-c2ccc(C)c(NS(C)(=O)=O)c2)nn2c(C)nnc12"
  unit info: "mL/min/kg"
  bound operator: "="
  measured result: 124
- compound: "NCc1cccc(C(=O)N2CCCC2)c1"
  unit info: "mL/min/kg"
  bound operator: "≤"
  measured result: 10.7
- compound: "CCCc1cc(N2CCc3c(nc(C4CC4)n3C)C2)n2ncnc2n1"
  unit info: "mL/min/kg"
  bound operator: "="
  measured result: 179
- compound: "CCc1noc(CN2CCCN(C(C)=O)c3ccccc32)n1"
  unit info: "mL/min/kg"
  bound operator: "="
  measured result: 855
- compound: "COc1ccccc1Oc1c(NS(=O)(=O)c2ccc(C(C)(C)C)cc2)nc(-c2ncccn2)nc1OCCO"
  unit info: "mL/min/kg"
  bound operator: "="
  measured result: 71.8
- compound: "CS(=O)(=O)NCCN1CCc2c(Cl)cc(Cl)cc2C1"
  unit info: "mL/min/kg"
  bound operator: "="
  measured result: 400
- compound: "CC(=O)N1CCN(C(=O)CS(=O)(=O)C23CC4CC(CC(C4)C2)C3)CC1"
  unit info: "mL/min/kg"
  bound operator: "="
  measured result: 298
- compound: "Cc1nc(C)c2c(C)c(C(=O)N(C)Cc3ccc(C)o3)sc2n1"
  unit info: "mL/min/kg"
  bound operator: "="
  measured result: 2890
- compound: "O=C(Nn1cnc2ccccc21)c1c2c(nc3ccccc13)CCC2"
  unit info: "mL/min/kg"
  bound operator: "≤"
  measured result: 10.7
- compound: "N#CCn1ncnc1-c1cccc(C#N)c1"
  unit info: "mL/min/kg"
  bound operator: "="
  measured result: 50.8
- compound: "Cc1ccc(=O)n(CC2(O)CCN(Cc3cccs3)CC2)n1"
  unit info: "mL/min/kg"
  bound operator: "="
  measured result: 161
- compound: "Cc1noc(C)c1CSC(=N)N1CCOCC1"
  unit info: "mL/min/kg"
  bound operator: "≤"
  measured result: 10.7
- compound: "CC(=O)Nc1nc(-c2c(C)cc(C)cc2C)cs1"
  unit info: "mL/min/kg"
  bound operator: "="
  measured result: 2360

---

attribute measured: intrinsic clearance, human liver microsomes

- chemical string: "O=C(COC(=O)c1cc(O)nc2ccccc12)c1ccc(Oc2c(Cl)cccc2[N+](=O)[O-])cc1"
  measured result: "986 mL/min/kg"
- chemical string: "C[C@@H]1CC(=O)Nc2cccc(-c3ccc4c(c3)c(-c3cnn(C)c3)nn4C)c2N1"
  measured result: "8.83 mL/min/kg"
- chemical string: "COCCS(=O)(=O)N1CCC2(Cc3ccccc3C2)C1"
  measured result: "19.2 mL/min/kg"
- chemical string: "C1CCC(OCc2noc(C3CC3)n2)CC1"
  measured result: "34 mL/min/kg"
- chemical string: "CCC(=O)NCCNC(=O)c1cc(-c2ccccc2)nc2ccccc12"
  measured result: "13.3 mL/min/kg"
- chemical string: "CC(C)CC(=O)N1CCC(Cc2cccc(-c3cncnc3)c2)(C(=O)NC(C)C)CC1"
  measured result: "199 mL/min/kg"
- chemical string: "N#Cc1cc(N2CC(CO)C2)nc2ccc(Cl)cc12"
  measured result: "68.9 mL/min/kg"
- chemical string: "Cc1cnn(Cc2cc(F)ccc2F)c1N"
  measured result: "6.7 mL/min/kg"
- chemical string: "CC1(C)CC(CC(=O)NCCn2ccnn2)CC(C)(C)N1"
  measured result: "≤ 4.74 mL/min/kg"
- chemical string: "CC(=O)Nc1nc(-c2c(C)cc(C)cc2C)cs1"
  measured result: "24.9 mL/min/kg"
- chemical string: "Cn1nc(N)c2ccc(Br)cc21"
  measured result: "24 mL/min/kg"
- chemical string: "Nc1cnn(CC(=O)N2CCCCC2)c1"
  measured result: "≤ 4.74 mL/min/kg"
- chemical string: "CN(CC1(O)CCCC1)c1ncccn1"
  measured result: "≤ 4.74 mL/min/kg"
- chemical string: "Nc1ccc(Nc2ncc3cnn(C4CCCCCC4)c3n2)cn1"
  measured result: "82.2 mL/min/kg"
- chemical string: "Cc1nnc(-c2ccc(N3CCC(Oc4cc(F)ccc4Cl)CC3)nn2)o1"
  measured result: "≤ 4.74 mL/min/kg"
- chemical string: "CC(C)NC(=O)c1cc(-c2ccccc2)n(-c2ccccn2)n1"
  measured result: "8.11 mL/min/kg"
- chemical string: "CCCNC(=O)CSc1nc2cc(C)ccc2[nH]1"
  measured result: "107 mL/min/kg"
- chemical string: "COc1ncnc2c1CN(Cc1c[nH]nc1-c1ccc(F)cc1)CC2"
  measured result: "70.7 mL/min/kg"
- chemical string: "Cc1cc(C)c(S(=O)(=O)Nc2ccccc2)c(C)c1"
  measured result: "137 mL/min/kg"
- chemical string: "CCOC(=O)N1CCc2cc(NC(=O)c3oc(C)cc3C)ccc21"
  measured result: "11.5 mL/min/kg"
- chemical string: "CC(C)N(C(=O)Cn1cccc2cc(C(F)F)nc1-2)C(C)C"
  measured result: "285 mL/min/kg"
- chemical string: "CCOc1ccccc1C(=O)N1CCC(c2nc(-c3ccc(OC)cc3)c(C(N)=O)[nH]2)CC1"
  measured result: "104 mL/min/kg"
- chemical string: "Fc1ccc(F)c(-c2nc(C3CCOCC3)nn2-c2cccnc2)c1"
  measured result: "≤ 4.74 mL/min/kg"
- chemical string: "N#Cc1ccccc1Cn1nnc(-c2ccccc2)n1"
  measured result: "10.7 mL/min/kg"

---

Recorded intrinsic clearance, human liver microsomes determines the group label, using bin 1 (below 20 mL/min/kg), bin 2 (20 mL/min/kg to below 50 mL/min/kg), bin 3 (50 mL/min/kg or more)

- compound: "Cc1nn(C)c2nc(C(C)C)cc(C(=O)O)c12"
  answer label: "bin 1"
- compound: "COc1ccc(CNc2c(-c3ccc(OC)c(OC)c3)nc3cnccn23)cc1"
  answer label: "bin 3"
- compound: "NC1CCC(C(=O)N2CCC(c3c[nH]c4ncccc34)CC2)C1 (stereo not given)"
  answer label: "bin 1"
- compound: "O=C(Nc1ccc2sccc2c1)N1CCCN(C(=O)Oc2ccccc2)CC1"
  answer label: "bin 3"
- compound: "C=CCn1c(=O)c2cnc(Nc3ccc(N4CCN(C)CC4)cc3)nc2n1-c1cccc(C(C)(C)O)n1"
  answer label: "bin 2"
- compound: "Cc1ccc(-c2ccccc2-c2nc3c(cnn3C3CCN(C)CC3)[nH]2)o1"
  answer label: "bin 1"
- compound: "CONC(=O)c1cn(-c2ccc(Br)cc2)cn1"
  answer label: "bin 1"
- compound: "NC(=O)CN1CCC(CCc2ccccc2)CC1"
  answer label: "bin 1"
- compound: "O=C1CCC(=O)N1Cc1nc(C23CC4CC(CC(C4)C2)C3)cs1"
  answer label: "bin 3"
- compound: "Cc1nn(C)c2ncnc(N(C)Cc3cccc(Cl)c3)c12"
  answer label: "bin 2"
- compound: "COc1cc(CN2CCCNCC2)cc2c1OCO2"
  answer label: "bin 1"
- compound: "CC(C)CCCNC(=O)c1[nH]ncc1Br"
  answer label: "bin 1"
- compound: "CC(C)c1nnc(CN(C(C)C)C2CCOCC2)o1"
  answer label: "bin 1"
- compound: "CCN(CC)Cc1cnc(NC(=O)c2ccccc2)s1"
  answer label: "bin 1"
- compound: "CCCn1nccc1NC(=O)c1c(C)noc1C"
  answer label: "bin 1"
- compound: "Cc1cc(OCC(=O)N(C)C2CCCCCCC2)no1"
  answer label: "bin 3"
- compound: "CC1CCN(CCNC(=O)c2ccncc2)CC1"
  answer label: "bin 1"
- compound: "Cc1ncsc1CNc1nnc(-c2ccncc2)o1"
  answer label: "bin 1"
- compound: "N#Cc1cc(Oc2ccc3c(c2)CCC3)ncn1"
  answer label: "bin 3"
- compound: "CN1C(=O)CCc2cc(NC(=O)C(C)(C)c3ccccc3F)ccc21"
  answer label: "bin 2"
- compound: "O=C(NC[C@]1(O)CCN(Cc2cscn2)C[C@H]1O)c1c[nH]cn1"
  answer label: "bin 1"
- compound: "Cc1ccc(CN2CC[C@H](c3nnc(-c4ccccc4F)o3)C2)o1"
  answer label: "bin 2"
- compound: "Nc1nc(N2CCN(CC3CCCC3)C(=O)C2)cc(-n2cccn2)n1"
  answer label: "bin 2"
